Field: MIC. Provide a value for each of the molecules that follow.
# Test system: Streptococcus pneumoniae
# protocol-text: Antibacterial activity against erythromycin-resistant Streptococcus pneumoniae A22072 expressing mef gene by the broth microdilution method
# Assay type: functional
Write the number in µg/mL without appending the unit.

**Q:** For the molecule shown here, `CC[C@H]1OC(=O)[C@H](C)[C@@H](O[C@H]2C[C@@](C)(OC)[C@@H](OC(=O)NCCNC(=O)c3ccc(Cl)cc3Cl)[C@H](C)O2)[C@H](C)[C@@H](O[C@@H]2O[C@H](C)C[C@H](N(C)C)[C@H]2O)[C@](C)(O)C[C@@H](C)CN(C)[C@H](C)[C@H]2OC(=O)O[C@@]21C` , give the reported MIC.
**A:** 2

**Q:** For the molecule shown here, `CC[C@H]1OC(=O)[C@H](C)[C@@H](O[C@H]2C[C@@](C)(OC)[C@@H](OC(=O)NCCCCNC(=O)c3ccc([N+](=O)[O-])cc3)[C@H](C)O2)[C@H](C)[C@@H](O[C@@H]2O[C@H](C)C[C@H](N(C)C)[C@H]2O)[C@](C)(O)C[C@@H](C)CN(C)[C@H](C)[C@H]2OC(=O)O[C@@]21C` , give the reported MIC.
**A:** 0.5

**Q:** For the molecule shown here, `CC[C@H]1OC(=O)[C@H](C)[C@@H](O[C@H]2C[C@@](C)(OC)[C@@H](OC(=O)NCCCCNC(=O)c3ccccc3OC)[C@H](C)O2)[C@H](C)[C@@H](O[C@@H]2O[C@H](C)C[C@H](N(C)C)[C@H]2O)[C@](C)(O)C[C@@H](C)CN(C)[C@H](C)[C@H]2OC(=O)O[C@@]21C` , give the reported MIC.
**A:** 0.5

----------
# System: Streptococcus pneumoniae
# protocol-text: Antibacterial activity against erythromycin-resistant Streptococcus pneumoniae AB11 expressing erm and mef gene by the broth microdilution method
# Type: functional
Field: MIC. Provide a value for each of the molecules that follow.

**Q:** For the molecule shown here, `CC[C@H]1OC(=O)[C@H](C)[C@@H](O[C@H]2C[C@@](C)(OC)[C@@H](OC(=O)NCCNC(=O)c3cc([N+](=O)[O-])cc([N+](=O)[O-])c3)[C@H](C)O2)[C@H](C)[C@@H](O[C@@H]2O[C@H](C)C[C@H](N(C)C)[C@H]2O)[C@](C)(O)C[C@@H](C)CN(C)[C@H](C)[C@H]2OC(=O)O[C@@]21C` , give the reported MIC.
**A:** 8 µg/mL

**Q:** For the molecule shown here, `CC[C@H]1OC(=O)[C@H](C)[C@@H](O[C@H]2C[C@@](C)(OC)[C@@H](OC(=O)NCCNC(=O)c3ccc(C)cc3)[C@H](C)O2)[C@H](C)[C@@H](O[C@@H]2O[C@H](C)C[C@H](N(C)C)[C@H]2O)[C@](C)(O)C[C@@H](C)CN(C)[C@H](C)[C@H]2OC(=O)O[C@@]21C` , give the reported MIC.
**A:** 16 µg/mL

**Q:** For the molecule shown here, `CC[C@H]1OC(=O)[C@H](C)[C@@H](O[C@H]2C[C@@](C)(OC)[C@@H](OC(=O)NCCNC(=O)c3ccc([N+](=O)[O-])cc3)[C@H](C)O2)[C@H](C)[C@@H](O[C@@H]2O[C@H](C)C[C@H](N(C)C)[C@H]2O)[C@](C)(O)C[C@@H](C)CN(C)[C@H](C)[C@H]2OC(=O)O[C@@]21C` , give the reported MIC.
**A:** 64 µg/mL
